- Test system: CDK4
- test parameters: concentration: 1 μM, replicates: in singlicate; n = 1;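 also: KINOMEscan kinase panel screen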
%Inh values for the compounds below.
Your answer should be a plain number; it is taken to be in %.

• Cn1cc(-c2ccc3c(c2)CCN3C(=O)Cc2cc(F)cc(F)c2F)c2c(N)ncnc21 [GSK2634140] = 26

Exam item: Report %Inh for O=C(Nc1n[nH]c2nc(-c3ccccc3)ccc12)C1CC1 [SB-708999]
Marked response: 12

Exam item: Return the recorded %Inh value; entry: Nc1cccc(-c2ccc3c(N)n[nH]c3c2)c1 [GSK2193613]
Marked response: 0

Exam item: State, in one line, measured %Inh of N#CC1(c2cccc(C(=O)Nc3cccc(Oc4ccc5nc(NC(=O)C6CC6)sc5n4)c3)c2)CC1
Marked response: 0

---

- Test system: CASK
- test parameters: concentration: 1 μM, replicates: in singlicate; n = 1
Mark rule met only for %Inh values smaller than 4%; exact matches and larger values are rule not met.

* Cc1ccc(Nc2ccnc(Nc3ccc(C)c(F)c3)n2)cc1O.Cl [GW582868] | rule not met

Exam item: A record lists COC(=O)Nc1nc2cc(Oc3ccc(NC(=O)Nc4cccc(SC)c4)cc3)ccc2[nH]1.Cl [GW697999] . Is its %Inh below 4%?
Marked response: rule not met

Exam item: Does the reported %Inh of the following compound sit strictly below 4%? Cc1ccc(-c2ccc3occ(-c4ccc(S(C)=O)cc4)c3c2)nn1 (centres unmarked)
Marked response: rule met

Exam item: State whether 4% exceeds %Inh recorded for Fc1cc(Cl)ccc1Nc1ccnc2cc(-c3ccc(CN4CCOCC4)o3)ccc12 [GW560109] .
Marked response: rule not met

Exam item: Bench note: check whether CN(c1ccc(NC(=O)Nc2cccc(Cl)c2)cc1)c1ccnc(N)n1.Cl [GW830707] shows %Inh below 4%
Marked response: rule not met

---

Recorded %Inh for the following molecules
- Tested on: p38-delta
- test parameters: concentration: 1 μM, replicates: in singlicate; n = 1
The reply should contain only the number, in %.

Example cases with answers are listed next.
- CC(C)NCC(Cc1ccccc1)NC(=O)c1cc(Br)c(-c2ccnc3[nH]ccc23)s1.Cl.Cl (stereo not shown): 16
- Cc1ccc(O)cc1Nc1ccnc2cc(-c3ccc(CN4CCCCC4)o3)ccc12: 0
- CN(C)c1ncnc2nc[nH]c12: 0
- Cc1ccc(O)cc1Nc1ccnc2ccc(C(C)(C)C)cc12: 0
- Cc1cccc(Nc2nc(NCCN)ncc2C(N)=O)c1: 24

Exam item: Supply %Inh value. Item: COc1cc(Nc2nccc(N3CCC(NS(=O)(=O)c4ccc(NC(C)=O)cc4)CC3)n2)cc(OC)c1OC
Marked response: 11

Exam item: Give %Inh for COC(=O)Nc1nc2cc(Oc3ccc(NC(=O)Nc4cccc(SC)c4)cc3)ccc2[nH]1.Cl
Marked response: 28

Exam item: Note down %Inh recorded for Cn1cc(-c2ccc3c(c2)CCN3C(=O)Cc2cc(F)cc(F)c2F)c2c(N)ncnc21
Marked response: 14

Exam item: Assign %Inh to the following record: Nc1ncc(-c2cn[nH]c2)c2scc(-c3ccc4c(c3)CCN4C(=O)Cc3ccccc3)c12
Marked response: 15

Exam item: Provide only the value of recorded %Inh for N#CC1(c2cccc(C(=O)Nc3cccc(Oc4ccc5nc(NC(=O)C6CC6)sc5n4)c3)c2)CC1
Marked response: 0

Exam item: Item CN1CCN(Cc2ccc(NC(=O)Nc3ccc(N(C)c4ccnc(Nc5ccc(CS(C)(=O)=O)cc5)n4)cc3)cc2)CC1.Cl : provide %Inh
Marked response: 0

Exam item: Answer with reported %Inh of O=C(O)C(F)(F)F.O=c1[nH]ccc2nc(N[C@@H]3CCNC3)nc(Nc3ccc4c(c3)S(=O)(=O)CC4)c12
Marked response: 44

Exam item: Read off the recorded %Inh for Cc1ccc(NC(=O)c2cccc(N3CCCCC3)c2)cc1-c1ccc(C(=O)NCC2CC2)cc1
Marked response: 46

Exam item: Provide %Inh value for the following molecule: Cc1ccc(NC(=O)c2ccc(Cl)c(Cl)c2)cc1-c1ccc(C(=O)Nc2ccncc2)cc1
Marked response: 24

Exam item: Quote %Inh reported for Cc1cccc(Nc2nc(N[C@H]3CCCC[C@H]3N)ncc2C(N)=O)c1.Cl please.
Marked response: 45

Exam item: Could you please provide reported %Inh for Cc1nn2c(=O)cc(N3CCO[C@H](C)C3)nc2n1Cc1cccc(Cl)c1Cl ? Thanks!
Marked response: 15

Exam item: Give a short answer stating reported %Inh for COc1cccc(NC(=O)NCCNc2ccnc(Nc3ccc(F)cc3)n2)c1 .
Marked response: 59

Exam item: Supply reported %Inh belonging to this molecule: Cn1cc(-c2ccc3c(c2)CCN3C(=O)Cc2cc(F)cc(C(F)(F)F)c2)c2c(N)ncnc21
Marked response: 46

Exam item: Recall and state the measured %Inh for CN(c1ccc(NC(=O)N2CCN(CCCN3CCOCC3)CC2)cc1)c1ccnc(Nc2ccc(CS(C)(=O)=O)cc2)n1.Cl .
Marked response: 0

Exam item: Given the molecule CN(c1ccc(NC(=O)Nc2cccc(Cl)c2)cc1)c1ccnc(N)n1.Cl , write its reported %Inh.
Marked response: 0

Exam item: Note down %Inh recorded for Cl.O=C(Nc1ccc(Oc2ccc3[nH]c(NC(=O)c4ccco4)nc3c2)cc1)Nc1cc(C(F)(F)F)ccc1F
Marked response: 39

Exam item: Read the entry CCOc1nccc(-c2c(-c3ccc(F)cc3)ncn2C2CCNCC2)n1 and write its reported %Inh.
Marked response: 4

---

Parameter %Inh: see the listing below.
- Tested on: SLK
- test parameters: concentration: 1 μM, replicates: in singlicate; n = 1
Please respond with the number in % and leave the unit unwritten.

Exam item: For the compound CCn1c(-c2nonc2N)nc2c(-c3ccccc3)ncc(OCCCN)c21.O=C(O)C(F)(F)F.O=C(O)C(F)(F)F , give its reported %Inh.
Marked response: 99.1

Exam item: Please supply the value of reported %Inh for the item CC(C)NCC(Cc1ccccc1)NC(=O)c1cc(Br)c(-c2ccnc3[nH]ccc23)s1.Cl.Cl (centres unmarked)
Marked response: 0

Exam item: Let me know recorded %Inh for COc1ccc(NC(=O)c2ccoc2)cc1-c1ccc(C(=O)NCC2CC2)cc1 , thanks.
Marked response: 0

Exam item: State its %Inh for this compound: Cc1ccc(O)cc1Nc1ccnc2cc(-c3ccc(CN4CCCCC4)o3)ccc12
Marked response: 34

Exam item: Using known records, supply %Inh for COc1cccc(-c2nc(-c3ccccc3)[nH]c2-c2ccncc2)c1
Marked response: 6

Exam item: Provide measured %Inh value, entry: Cc1ccccc1CC(=O)N1CCc2cc(-c3cn(C)c4ncnc(N)c34)ccc21
Marked response: 48

Exam item: Supply reported %Inh belonging to this compound: Cl.Cl.NCC(NC(=O)c1cc(-c2cccnc2)c(-c2ccnc3[nH]ccc23)s1)c1ccccc1 (centres unmarked)
Marked response: 32

Exam item: Quote %Inh reported for COc1ccc(C)c(Nc2ccnc(Nc3ccc(-c4cnc[nH]4)cc3)n2)c1.Cl please.
Marked response: 70

---

Recorded %Inh, one value per entry.
- System: EPHA4
- test parameters: concentration: 1 μM, replicates: in singlicate; n = 1
Give the quantity in %, number only.

Use the examples below as a reference point.
- COc1cccc(C2=C(Nc3cccc(O)c3)C(=O)NC2=O)c1: 27
- CSc1ccc(NC2=C(c3ccc(Cl)cc3)C(=O)NC2=O)cc1: 28

Exam item: Give the reported value of %Inh for this record: Cn1cc(-c2cnc(N)c3c(-c4ccc5c(c4)CCN5C(=O)Cc4ccccc4)csc23)cn1
Marked response: 11

Exam item: Entry CN(C)c1ncnc2nc[nH]c12 needs its %Inh filled in; supply it.
Marked response: 0

Exam item: Let me know recorded %Inh for Cl.O=C(Nc1ccc(Oc2ccc3[nH]c(NC(=O)c4ccco4)nc3c2)cc1)Nc1cc(C(F)(F)F)ccc1F , thanks.
Marked response: 93.6

Exam item: Give %Inh for CCNc1nccc(-c2c(-c3ccc(F)cc3)ncn2C2CCN(C)CC2)n1
Marked response: 5

---

- Test system: CSNK1E
- test parameters: concentration: 1 μM, replicates: in singlicate; n = 1
test readout: %Inh
The reply should read as a number followed by its unit.

- COc1cccc(NC(=O)NCCNc2ccnc(Nc3ccc(F)cc3)n2)c1 [GSK1379879]: 0%
- Cl.Cl.NC(CNC(=O)c1cc(Br)c(-c2ccnc3[nH]ccc23)s1)c1ccccc1 (stereo not shown) [GSK1322949]: 90.8%
- O=C(Nc1c(F)cccc1F)c1cc(C(=O)c2ccccc2F)c[nH]1 [GSK1326180]: 20%
- CN(c1ccc(F)c(NC(=O)c2cccc(OC(C)(C)C#N)c2Cl)c1)c1ccc2nc(NC(=O)C3CC3)sc2n1: 0%
- O=C1NC(=O)C(c2ccccc2Cl)=C1Nc1cccc(Cl)c1 [SB-342409]: 17%

Exam item: Entry Cn1cc(-c2cnc(N)c3c(-c4ccc5c(c4)CCN5C(=O)Cc4ccccc4)csc23)cn1 [GSK2593074] needs its %Inh filled in; supply it.
Marked response: 1%

Exam item: Return %Inh for the following compound: COC(=O)Nc1nc2ccc(Oc3ccc(CC(=O)Nc4cc(C(F)(F)F)ccc4F)cc3)cc2[nH]1 [GW680903]
Marked response: 0%

Exam item: Please report the measured %Inh for COc1ccc(NC(=O)c2ccoc2)cc1-c1ccc(C(=O)NCC2CC2)cc1 [GW810437]
Marked response: 3%

Exam item: Answer with the recorded %Inh for the compound listed here: CC(C)c1nc(-c2ccc(F)c(NS(=O)(=O)c3c(F)cccc3F)c2)c(-c2ccnc(Nc3ccc(N4CCOCC4)nc3)n2)s1 [GSK1804250]
Marked response: 36%

Exam item: State its %Inh: CN(C)CCOc1ccc(-c2cc(-c3ccc(Cl)c(O)c3)c(-c3ccncc3)[nH]2)cc1.Cl.Cl [SB-684387]
Marked response: 94.6%

Cited source: paper PMC5540273
